Tested on: HOP-92 NSCLC
protocolDescription: NCI-60 one-dose screen, 48 h (100 = growth as untreated, 0 = no growth, -100 = all killed)
details: 10 µM unless noted
The panel holds about 83,000 compounds, 20% with a hit somewhere; the sample as a whole holds those more often.
Criterion: growth strictly under 90%. Met: Y. Not met: N.

{"molecule": "C=C(C)[C@@H]1CC[C@]2(C(=O)OCCOCCOCC[P+](c3ccccc3)(c3ccccc3)c3ccccc3)CC[C@]3(C)[C@H](CC[C@@H]4[C@@]5(C)CC[C@H](OC(C)=O)C(C)(C)[C@@H]5CC[C@]43C)[C@@H]12", "classLabel": "Y"}
{"molecule": "COc1cc2c(cc1OCCCOc1cc3c(cc1OC)C(=O)N1CC(F)(F)C[C@H]1C=N3)N=C[C@@H]1CC(F)(F)CN1C2=O", "classLabel": "Y"}
{"molecule": "NC[C@@H]1CCN(c2cc3c(cc2F)c(=O)n(N)c(=O)n3Cc2ccc(-c3ccccc3)cc2)C1", "classLabel": "Y"}

Incoming: Please determine if COc1cc(NCC(=O)Nc2cc(Nc3ccc(C)cc3)ncn2)c(Cl)c(OC)c1Cl is below 90% in terms of growth.
Outgoing: Y

Incoming: Please determine if Cc1ccc(SC2c3ccc(C)cc3Oc3nc(N)c(C#N)c(N)c32)cc1 (stereo not drawn) is below 90% in terms of growth.
Outgoing: Y

Incoming: Please determine if O=C1CCC23OC(C(O)c4ccccc4N12)C1C(Br)=NOC13 (stereo not drawn) is below 90% in terms of growth.
Outgoing: N
